System tested: Axl (UniProt P30530)
Sequence (P30530 26-451 limits assumed): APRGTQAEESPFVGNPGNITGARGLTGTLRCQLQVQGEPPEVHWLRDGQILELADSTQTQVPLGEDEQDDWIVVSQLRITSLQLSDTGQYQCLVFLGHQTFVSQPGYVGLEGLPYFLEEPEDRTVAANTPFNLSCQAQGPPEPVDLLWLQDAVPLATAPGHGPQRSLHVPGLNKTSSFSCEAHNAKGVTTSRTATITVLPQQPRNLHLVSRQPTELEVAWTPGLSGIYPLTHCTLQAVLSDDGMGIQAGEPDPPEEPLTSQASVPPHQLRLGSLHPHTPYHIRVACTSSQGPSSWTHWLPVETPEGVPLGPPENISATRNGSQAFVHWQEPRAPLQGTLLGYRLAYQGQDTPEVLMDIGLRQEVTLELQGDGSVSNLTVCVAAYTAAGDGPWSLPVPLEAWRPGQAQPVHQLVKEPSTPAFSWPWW
Protocol summary: ELISA, 1:9 dilution
In this section we review reported Affinity ELISA CPE mutant ratio (1:9, pH 6.0/7.4) values for a set of binders.
Observed property: Affinity ELISA CPE mutant ratio (1:9, pH 6.0/7.4)

[[record]]
binder = "LC-P095T (antibody, V domains shown) VH: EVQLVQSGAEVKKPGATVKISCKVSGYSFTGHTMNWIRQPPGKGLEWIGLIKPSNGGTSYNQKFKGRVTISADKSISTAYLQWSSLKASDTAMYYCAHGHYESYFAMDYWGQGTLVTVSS VL: DIQMTQSPSSLSASVGDRVTITCKASQDVSSAVAWYQQKPGQAPRLLIYWASTRHTGVPSRFSGSGSGTEFTLTISSLQPDDFATYYCQEHFSTTLTFGQGTKVEIK"
meas_value = 2.09

[[record]]
binder = "LC-P095A (antibody, V domains shown) VH: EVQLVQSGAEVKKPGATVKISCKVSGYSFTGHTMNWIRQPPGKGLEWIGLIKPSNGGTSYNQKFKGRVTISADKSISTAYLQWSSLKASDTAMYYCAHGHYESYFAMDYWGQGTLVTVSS VL: DIQMTQSPSSLSASVGDRVTITCKASQDVSSAVAWYQQKPGQAPRLLIYWASTRHTGVPSRFSGSGSGTEFTLTISSLQPDDFATYYCQEHFSTALTFGQGTKVEIK"
meas_value = 2.99

[[record]]
binder = "LC-P095S (antibody, V domains shown) VH: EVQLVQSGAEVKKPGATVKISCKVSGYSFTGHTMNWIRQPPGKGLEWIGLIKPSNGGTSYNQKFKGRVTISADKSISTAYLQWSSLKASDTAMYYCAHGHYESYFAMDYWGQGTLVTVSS VL: DIQMTQSPSSLSASVGDRVTITCKASQDVSSAVAWYQQKPGQAPRLLIYWASTRHTGVPSRFSGSGSGTEFTLTISSLQPDDFATYYCQEHFSTSLTFGQGTKVEIK"
meas_value = 3.51

